System: A549/ATCC NSCLC
METHOD SUMMARY: NCI-60 one-dose screen, 48 h
EXPERIMENTAL CONDITIONS: 10 µM unless noted
This is part of a sample that, as a whole, favours compounds with a hit. Of some 83,000 tested, about 20% had one in any assay. Activity calls are given as the source filed them. Rule for the calls: active = growth percent below 10; inactive = the rest.
Outcomes you can answer with include only these: T = active, F = inactive

Hi, sorry to bother you, what did the test record for "CSc1nc(C)c(C(=O)CCN2CCN(c3ccccn3)CC2)s1" ? F

Dear all, I need the recorded test outcome for "CCCCCCCCCCCCCCCc1ccc(C(=O)C[n+]2ccccc2)cc1" , thank you. T

State the result this test recorded for Nc1nc2ncc(CNc3ccc(C(=O)NC(CCC(=O)NC(CCC(=O)NC(CCC(=O)NC(CCC(=O)NC(CCC(=O)O)C(=O)O)C(=O)O)C(=O)O)C(=O)O)C(=O)O)cc3)nc2c(=O)[nH]1 (stereo not drawn) . F

Please let me know the test result on file for "CCCCOS(=O)(=O)c1ccccc1" . F

Called result for "CCCCCCCCCCCCCCCCSC(=NCC)NCC" T

GET /call?item= "COc1cc(/C=C/c2ccnc3ccccc23)cc(OC)c1OC" returns the recorded outcome of this test. F

// param item: CCOc1ccc(C(C[N+](=O)[O-])Sc2ccccc2N)cc1 (stereo not drawn) ; yields the recorded call F

# fetch the recorded call for "N=C1C=C(N)C(=O)c2ccccc21" here T

What is the recorded call for this molecule in the test? "Nc1nc(-c2ccccc2)nc(N)c1N=O" F

How was "Oc1ccc(Cl)cc1Cc1cc(Cl)ccc1O" classified in this test? F

What did this assay record as the result for "COc1ccc2nc3cc([N+](=O)[O-])ccc3c(NNc3ccccc3)c2c1" ? F

So what was the verdict on CCOc1ccc2c(c1)/C(=C\C=C\C1CC(C)C3CC(OCC)CCC3N1CC)CC(C)N2CC (stereo not drawn) in this test? T

Called result for "CCOC(=O)NC(/C=C/c1ccccc1)NC(=O)OCC" F

Could you check what this test reported for NC(CS/C(Cl)=C/Cl)C(=O)O (stereo not drawn) ? T

Tell me the recorded outcome of this test for "C/C=C/c1cc2c(c(=O)o1)C(=O)[C@@H](O)[C@H](C)O2" . F

GET /call?item= "CCCCCCCCCCCC1=NCCCN1CCCC" returns the recorded outcome of this test. F

# outcome recorded in this test, key = "O=C(O)c1cccc2cccc(-c3c4ccc(=O)c(O)c-4oc4c(O)c(O)ccc34)c12" F

I would be grateful if you could indicate the recorded call for OC(c1cc2ccc(C(F)(F)F)cc2c2cc(C(F)(F)F)ccc12)C1CCCCN1 (stereo not drawn) . T

For "COC(=O)c1nc(=S)[nH]c(C(=O)OC)c1C(=O)c1ccc(Cl)c(Cl)c1" , what call appears in the results of this test? F

Just curious, what result did "Cc1cc(C)c([I+]c2c(C)cc(C)cc2C)c(C)c1" get here? T

// outcome(item) with item = "O=[N+]([O-])c1ccc([I+]c2ccccc2)cc1" T

Recorded test outcome, item "COc1cc(/C=C/C(=O)CC(=O)/C=C/c2ccc(O)c(OC)c2)ccc1O" F

// outcome(item) with item = "c1ccc(-c2cc3cc4ccccc4cn3c2)cc1" F
